Molecular target: T1, monkey PRLR on HEK293/mfPRLR cells (Macaca fascicularis, UniProt A0A2K5WXK1)
T1 construct: HA; expressed in transfected cells; host or cells: HEK293
T1 sequence (A0A2K5WXK1 25-619): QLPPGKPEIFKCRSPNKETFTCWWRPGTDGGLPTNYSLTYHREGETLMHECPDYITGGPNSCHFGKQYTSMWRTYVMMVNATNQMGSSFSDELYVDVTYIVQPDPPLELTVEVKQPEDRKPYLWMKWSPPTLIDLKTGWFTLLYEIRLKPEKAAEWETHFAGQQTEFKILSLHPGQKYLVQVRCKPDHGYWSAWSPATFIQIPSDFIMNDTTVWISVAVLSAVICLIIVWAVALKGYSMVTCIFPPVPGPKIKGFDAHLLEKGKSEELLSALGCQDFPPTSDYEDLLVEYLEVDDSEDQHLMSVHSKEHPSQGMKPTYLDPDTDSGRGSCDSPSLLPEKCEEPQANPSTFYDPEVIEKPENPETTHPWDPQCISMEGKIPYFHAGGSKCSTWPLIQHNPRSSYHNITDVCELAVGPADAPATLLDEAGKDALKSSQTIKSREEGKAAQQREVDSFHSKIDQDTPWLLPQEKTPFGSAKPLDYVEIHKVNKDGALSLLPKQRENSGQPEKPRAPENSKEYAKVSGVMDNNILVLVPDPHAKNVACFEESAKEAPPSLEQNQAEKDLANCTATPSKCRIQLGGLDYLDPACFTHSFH
Test: FACS cell surface binding
reported-property: FACS Cell Binding (Fold Above Background)
The response must be a number in Fold Above Background with no trailing unit.

INSERT INTO results (molecule, reported_property, scale_unit, numeric_readout) VALUES
  ('H1H6781P: fully human anti-PRLR antibody, human IgG1 Fc; HCVR/LCVR SEQ ID NOs 50/58 (antibody, V domains shown) VH: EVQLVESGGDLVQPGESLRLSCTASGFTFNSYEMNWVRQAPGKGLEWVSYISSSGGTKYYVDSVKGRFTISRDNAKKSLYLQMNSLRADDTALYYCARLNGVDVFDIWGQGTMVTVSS VL: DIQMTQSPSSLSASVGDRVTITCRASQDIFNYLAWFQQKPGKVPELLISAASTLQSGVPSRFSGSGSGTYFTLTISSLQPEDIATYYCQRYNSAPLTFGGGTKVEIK', 'FACS Cell Binding', 'Fold Above Background', 26);

From here, focus on the item given below.
**Q:** Report FACS Cell Binding for H1H6795P: fully human anti-PRLR antibody, human IgG1 Fc; HCVR/LCVR SEQ ID NOs 162/170 (antibody, V domains shown) VH: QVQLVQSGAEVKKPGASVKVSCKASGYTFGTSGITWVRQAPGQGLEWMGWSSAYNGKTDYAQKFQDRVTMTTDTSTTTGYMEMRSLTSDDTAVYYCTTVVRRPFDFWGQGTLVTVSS VL: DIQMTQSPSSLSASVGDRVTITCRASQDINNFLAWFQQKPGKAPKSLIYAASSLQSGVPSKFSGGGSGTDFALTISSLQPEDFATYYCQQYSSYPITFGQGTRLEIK
**A:** 22

Source: patent US10925971B2
